Origin of the recorded values: paper PMC7229044

assay_name: HaCaT cytotoxicity assay (LDH)
Type: cell-based
assay_context: human, HaCaT keratinocyte cells, read-out: IC50 for cytotoxicity to HaCaTs
In this section we review reported IC50 values for a set of compounds.
reported_endpoint: IC50

>>> result("CC(=CCCC(C)C1CCC2(C)C3=CCC4C(C)(C)C(O)CCC4(C)C3CCC12C)C(=O)O (stereo not drawn)")
"70 µM"
>>> result("CC(=CCCC(C)C1CCC2(C)C3=CCC4C(C)(C)C(=O)CCC4(C)C3CCC12C)C(=O)O (stereo not drawn) [Compound 2, 3-oxotirucalla-7,24Z-dien-26-oic acid]")
"70 µM"
>>> result("CC1(C)CCC2(C(=O)O)CCC3(C)C(=CCC4C5(C)CCC(=O)C(C)(C)C5CCC43C)C2C1 (stereo not drawn)")
"140 µM"

###

System: all S. aureus accessory gene regulator (agr) alleles
assay_name: microbe, parasite or virus in culture
Type: cell-based
assay_context: Staphylococcus aureus, read-out: IC50 values for quorum sensing inhibition, range over all four agr types
In this section we review reported IC50 values for a set of compounds.
reported_endpoint: IC50

>>> result("CC1(C)CCC2(C(=O)O)CCC3(C)C(=CCC4C5(C)CCC(=O)C(C)(C)C5CCC43C)C2C1 (stereo not drawn) [Compound 1, 3-oxo-olean-12-en-28-oic acid]")
"4 to 70 µM"
>>> result("CC(=CCCC(C)C1CCC2(C)C3=CCC4C(C)(C)C(O)CCC4(C)C3CCC12C)C(=O)O (stereo not drawn) [Compound 3]")
"4 to 9 µM"
>>> result("CC(=CCCC(C)C1CCC2(C)C3=CCC4C(C)(C)C(=O)CCC4(C)C3CCC12C)C(=O)O (stereo not drawn) [Compound 2, 3-oxotirucalla-7,24Z-dien-26-oic acid]")
"2 to 9 µM"

###

System: S. aureus NRS249 (agr I)
assay_name: Broth microdilution growth inhibition (MIC)
Type: cell-based, Staphylococcus aureus
assay_context: Staphylococcus aureus, ≥50% growth inhibition, ND = not detected at 4–563 μM
pIC50: −log10 of the molar value.
reported_endpoint: pIC50

>>> result_number("CC(=CCCC(C)C1CCC2(C)C3=CCC4C(C)(C)C(=O)CCC4(C)C3CCC12C)C(=O)O (centres unmarked) [Compound 2, 3-oxotirucalla-7,24Z-dien-26-oic acid]")
5.05
>>> result_number("CC(=CCCC(C)C1CCC2(C)C3=CCC4C(C)(C)C(O)CCC4(C)C3CCC12C)C(=O)O (centres unmarked) [Compound 3]")
4.74
